- Target system: T1, ΔCRD2-TNFR2 protein (with CRD2 deletion), on CHO-S cells (human, UniProt P20333 23-461)
- T1 construct: also called CHO-SΔCRD2-TNFR2
- T1 sequence: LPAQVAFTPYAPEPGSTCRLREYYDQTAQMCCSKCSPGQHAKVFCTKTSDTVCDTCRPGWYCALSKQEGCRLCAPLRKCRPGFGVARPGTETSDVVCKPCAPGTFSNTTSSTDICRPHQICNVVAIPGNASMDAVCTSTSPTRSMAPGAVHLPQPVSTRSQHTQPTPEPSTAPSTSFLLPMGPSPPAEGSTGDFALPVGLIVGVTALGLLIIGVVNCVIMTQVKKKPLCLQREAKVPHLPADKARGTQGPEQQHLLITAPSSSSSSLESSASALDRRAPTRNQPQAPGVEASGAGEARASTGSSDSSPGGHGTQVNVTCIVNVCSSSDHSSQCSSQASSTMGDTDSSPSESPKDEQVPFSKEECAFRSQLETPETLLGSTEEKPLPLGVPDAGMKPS
- Assay name: FACS on CHO-S cells with ΔCRD2-TNFR2, AF647 anti-human IgG Fc secondary
# positive rate of binding (% of cells) listing for each entry below
Readout: positive rate of binding (% of cells) (%)

- Binder: "BC-1F4-IgG1 (antibody, V domains shown, Human VH/VL joined to the human IgG1 subtype) VH: QVQLQQSGPGLVKPSQTLSLTCAISGDSVSSDSSAWNWIRQSPSRGLEWLGRTYYRSKWYNDYTVSVKSRITINPDTSKNQFSLQLNSVTPEDTAVYYCAREDGVGGTKDYFDYWGQGTLVTVSS VL: DIQMTQSPSSLSASVGDRVTITCQASQDISNYLNWYQQKPGKAPKLLIYDASNLETGVPSRFSGSGSGTDFTFTINSLQPEDFATYFCQQYDNLPITFGQGTRLEIK"
  Readout: "positive rate of binding (% of cells)"
  Measure unit: "%"
  Result number: 59.1
- Binder: "BC-1A8-IgG1 (antibody, V domains shown, Fully human VH/VL joined to the human IgG1 subtype, kappa light chain (RenMab mice)) VH: QVQLQQSGPGLVKPSQTLSLTCAISGDSVSSNSAAWNWIRQSPSRGLEWLGRTYYRSKWYNDYALSVKSRITINPETSKNQFSLQLNSVTPEDTAVYYCAREDGVGGTKDYFDYWGQGTLVTVSS VL: DIQMTQSPSSLSASVGDRVTITCQASQDIDNYLNWYQQKPGKAPKLLIYDVSNLEIGVPSRFSGSGSGTDFTFTISSLQPEDIATYYCQQYDNLPLTFGQGTRLEIK"
  Readout: "positive rate of binding (% of cells)"
  Measure unit: "%"
  Result number: 71.2
- Binder: "BC-1B6-IgG1-LALA (antibody, V domains shown) VH: QVQLVESGGGVVQPGRSLRLSCAASGFTFSNFGMHWVRQAPGKGLEWVAVIWYEGSDKYYADSVKGRFTISRDNSKNTLYLQMNSLRAEDTAVYYCARDSSWGFLLYGMDVWGQGTTVTVSS VL: DVVMTQSPLSLPVTLGQPASISCRSSRSLEYSDGNTYLNWFQQRPGQSPRRLIYKVSNRDSGVPDRFSGSGSGTAFTLKISGVEAEDVGVYYCMQGTHWPPTFGGGTKVEIK"
  Readout: "positive rate of binding (% of cells)"
  Measure unit: "%"
  Result number: 75.6
- Binder: "BC-1C3-IgG1 (antibody, V domains shown, Human VH/VL joined to the human IgG1 subtype) VH: QVQLVESGGGVVHPGKSLRLSCAASGFTFNIYGMHWVRQAPGKGLEWVALISYDGNDKYFADSVKGRFTISRDNSKNTLYLQMNSLRAEDTAVYYCAKAVDTAVVTFFDYWGQGTLVTVSS VL: EIVMTQSPVTLSVSPGERATLSCRASQSVSSNLAWYQQKPGQAPRLLIYSASTRATGIPARFSGSGSGTEFTLTISSLQSEDLAVYYCQQYSNWPFTFGPGTKVDIK"
  Readout: "positive rate of binding (% of cells)"
  Measure unit: "%"
  Result number: 80.3
